Test system: HCT-116
Assay: Induction of apoptosis in human HCT116 cells assessed as caspase activation by HTS assay
Type: functional, cell-based
Measurement label: EC50 (nM)

Below: 5 molecules and their reported EC50.
[
  {
    "Molecule": "COc1cc(C2C(C#N)=COc3cc(N(C)C)ccc32)cc(Br)c1OC (stereo not drawn)",
    "EC50, nM": 93
  },
  {
    "Molecule": "CCOC(=O)C1=C(N)Oc2c(ccc3[nH]ccc23)C1c1cc(Br)c(OC)c(OC)c1 (stereo not drawn)",
    "EC50, nM": 3000
  },
  {
    "Molecule": "COc1cc(C2C(C#N)=C(NC(=O)Nc3ccccc3)Oc3cc(N(C)C)ccc32)cc(Br)c1OC (stereo not drawn)",
    "EC50, nM": 84
  },
  {
    "Molecule": "COc1cc(C2C(C#N)=C(N3C(=O)CCC3=O)Oc3cc(N(C)C)ccc32)cc(Br)c1OC (stereo not drawn)",
    "EC50, nM": 420
  },
  {
    "Molecule": "COc1cc(C2C(C#N)=COc3c2ccc2[nH]ccc32)cc(Br)c1OC (stereo not drawn)",
    "EC50, nM": 66
  }
]

a. COc1cc(C2C(C#N)=COc3c2ccc2c3ccn2C)cc(Br)c1OC (stereo not drawn)
b. COC(=O)C1=C(N)Oc2c(ccc3[nH]ccc23)C1c1cc(Br)c(OC)c(OC)c1 (stereo not drawn)
c. CCn1ccc2c3c(ccc21)C(c1cc(Br)c(OC)c(OC)c1)C(C#N)=CO3 (stereo not drawn)
Query string: # rank by EC50, ascending (min first) Write out the labels following the order that was asked for.
Result string: a, c, b

----------
System: SNU-398
Test: Growth inhibition of human SNU398 cells
Assay type: functional
Measurement label: GI50 (nM)

[
  {
    "Molecule": "COc1cc(C2C(C#N)=COc3cc(N(C)C)ccc32)cc(Br)c1OC (centres undefined)",
    "Measurement target": "SNU-398",
    "GI50 (nM)": 17
  },
  {
    "Molecule": "COc1cc(C2C(C#N)=COc3c2ccc2c3ccn2C)cc(Br)c1OC (centres undefined)",
    "Measurement target": "SNU-398",
    "GI50 (nM)": 4
  }
]

1. COc1cc(C2C(C#N)=COc3c2ccc2[nH]ccc32)cc(Br)c1OC (centres undefined)
2. CCOC(=O)C1=C(N)Oc2c(ccc3[nH]ccc23)C1c1cc(Br)c(OC)c(OC)c1 (centres undefined)
Query string: Which value of GI50 is smaller, the one for 1 or the one for 2 ? Mark your selection by writing its label.
Result string: 1
(1: 34 nM, 2: 1600 nM)
